Just for reference, PubChem BioAssay AID1963958 is where these values come from.

System: MDA-MB-231 multicell spheroids, viability
procedure.details: Anticancer human tumor MDA-MB-231 cell line growth inhibition [PI3K];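 also: spheroids exposed to agents for seven days before reading; percent of vehicle control luminescence with DMSO treated spheroids as 100%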
condition.label: second compound 0.1 µM; first compound 10 µM; stronger effect = lower value
Description: Combinatorial screen of targeted agents with the PI3K inhibitors inavolisib, alpelisib, duvelisib, and copanlisib in multi-cell type tumor spheroids A high-throughput screen of multi-cell type tumor spheroids was designed to identify active combinations of targeted small molecules and PI3K pathway inhibitors. […] Compounds. […] If the clinical Cmax for an agent had not been determined, the highest concentration tested was 10 microM. […]
Kindly supply the reported viability, T/C values for the records listed here.
Just the number in %, nothing appended.

For record C[C@@H](NC(=O)c1ncnc(N)c1Cl)c1ncc(C(=O)Nc2cc(C(F)(F)F)c(Cl)cn2)s1 + CC(Nc1ccc2c(c1)OCCn1cc(N3C(=O)OCC3C(F)F)nc1-2)C(N)=O the listed viability, T/C is 32.6

For record Cn1ncc(Cl)c1-c1cc(C(=O)NC(CN)Cc2cccc(F)c2)sc1Cl (stereo unspecified) + COc1c(OCCCN2CCOCC2)ccc2c3n(c(=NC(=O)c4cnc(N)nc4)nc12)CCN3 the listed viability, T/C is 17.4

For record CNC(=O)c1ccc(N2C(=S)N(c3ccc(C#N)c(C(F)(F)F)c3)C(=O)C2(C)C)cc1F + COc1c(OCCCN2CCOCC2)ccc2c3n(c(=NC(=O)c4cnc(N)nc4)nc12)CCN3 the listed viability, T/C is 38.8

For record CC(C)NCC(C(=O)N1CCN(c2ncnc3c2C(C)CC3O)CC1)c1ccc(Cl)cc1 (stereo unspecified) + CC(Nc1ncnc2nc[nH]c12)c1cc2cccc(Cl)c2c(=O)n1-c1ccccc1 the listed viability, T/C is 46.8

For record Cn1nccc1Nc1nccc(-c2ccn(C(CO)c3ccc(Cl)c(F)c3)c(=O)c2)n1 (stereo unspecified) + CC(Nc1ccc2c(c1)OCCn1cc(N3C(=O)OCC3C(F)F)nc1-2)C(N)=O the listed viability, T/C is 20.8

For record CC1(C)CCC(CN2CCN(c3ccc(C(=O)NS(=O)(=O)c4ccc(NCC5CCOCC5)c([N+](=O)[O-])c4)c(Oc4cnc5[nH]ccc5c4)c3)CC2)=C(c2ccc(Cl)cc2)C1 + Cc1nc(NC(=O)N2CCCC2C(N)=O)sc1-c1ccnc(C(C)(C)C(F)(F)F)c1 the listed viability, T/C is 16.8
